tested on: 883617-216-R-J1-PDC complex spheroid viability; assay: Anticancer human tumor 883617-216-R-J1-PDC patient-derived bladder carcinoma cell line growth inhibition [POLQ]; settings: second compound 0.0316 µM; first compound 0.0316 µM; stronger effect = lower value;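 further: spheroids exposed to compounds for seven days before readout; 100% = DMSO vehicle control viability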
experimental-readout: viability, T/C (%)

• CC(C)n1c(=O)n(C)c2cnc3cc(F)c(-c4ccc(OCCCN5CCCCC5)nc4)cc3c21 + COC1C(OC(N)=O)C(O)C(Oc2ccc3c(O)c(NC(=O)c4ccc(O)c(CC=C(C)C)c4)c(=O)oc3c2C)OC1(C)C = 92.2
• CC1COCCN1c1cc(C2(O)CC3CCC(C2)O3)c2cnn(-c3ccn[nH]3)c2n1 (stereo not given) + Cc1cccc(N(C)C(=O)C2C(O)CCN2c2nc(C)cc(C(F)(F)F)c2C#N)c1 = 76.6
• O=C(Nc1ccc(O)c(NS(=O)(=O)c2ccc(F)cc2)c1)c1ccc(-c2ccccc2)cc1 + Cc1cccc(N(C)C(=O)C2C(O)CCN2c2nc(C)cc(C(F)(F)F)c2C#N)c1 = 96.5
• O=c1[nH]cc(F)c(=O)[nH]1 + Nc1ccc(C#CCN(C(=O)Cc2ncc(C(F)(F)F)cc2C(F)(F)F)c2ccc(F)cc2)nn1 = 112
• C=CC(=O)N1CCN(c2nc(=O)n(-c3c(C)ccnc3C(C)C)c3nc(-c4c(O)cccc4F)c(F)cc23)C(C)C1 (stereo not given) + COC1C(OC(N)=O)C(O)C(Oc2ccc3c(O)c(NC(=O)c4ccc(O)c(CC=C(C)C)c4)c(=O)oc3c2C)OC1(C)C = 79.2

FYI, the data here is from PubChem BioAssay AID1963833.
